- Experiment Summary: Volume of distribution during steady state in rat
- Assay Context: in vivo
Measured Attribute: Vd (L/kg)

Below are worked cases with known answers.
CCO[C@@H](Cc1ccc(OC/C=C/C#Cc2cccc(C#C/C=C/COc3ccc(C[C@H](OCC)C(=O)O)cc3)c2)cc1)C(=O)O ... 0.16
CCO[C@@H](Cc1ccc(OC/C=C/C#Cc2ccccc2)cc1)C(=O)O ... 0.14

[I] CCO[C@@H](Cc1ccc(OC/C=C(\C)c2ccc(-c3ccccc3)cc2)cc1)C(=O)O
[II] CCO[C@@H](Cc1ccc(OC/C=C(\C)c2ccc(-c3ccc(/C(C)=C/COc4ccc(C[C@H](OCC)C(=O)O)cc4)cc3)cc2)cc1)C(=O)O
[III] CCO[C@@H](Cc1ccc(OC/C=C/C#Cc2ccc(C#C/C=C/COc3ccc(C[C@H](OCC)C(=O)O)cc3)cc2)cc1)C(=O)O
Exam item: Task for the reader: rank each entry by its Vd, from the minimum upward. Arrange the labels as the request states and list them.
Marked response: III, II, I

###

- Experiment Summary: Oral half-life in rat after peroral administration
- Assay type: ADME, organism-based
- Assay Context: in vivo
Measured Attribute: half-life (h)

Solved cases (2 shown):
CCO[C@@H](Cc1ccc(OC/C=C/C#Cc2ccccc2)cc1)C(=O)O ... 2.03
CN(CCOc1ccc(CC2SC(=O)NC2=O)cc1)c1ccccn1 (stereo unspecified) ... 3.03

[I] CCO[C@@H](Cc1ccc(OC/C=C/C#Cc2cccc(C#C/C=C/COc3ccc(C[C@H](OCC)C(=O)O)cc3)c2)cc1)C(=O)O
[II] CCO[C@@H](Cc1ccc(OC/C=C(\C)c2ccc(-c3ccccc3)cc2)cc1)C(=O)O
Exam item: Two entries are listed, I and II . Which one carries the higher half-life? In your reply, give the label of the chosen option.
Marked response: I

###

- Assay System: Peroxisome proliferator-activated receptor alpha (Rattus norvegicus)
- Experiment Summary: In vitro transactivation of rat Peroxisome proliferator activated receptor alpha
- Set-up: concentration or dose not given beside the values
Measured Attribute: Fold activation (%)

Reference set (3 entries):
CCO[C@@H](Cc1ccc(OC/C=C/C#Cc2ccc(C#C/C=C/COc3ccc(C[C@H](OCC)C(=O)O)cc3)cc2)cc1)C(=O)O ... 210
CCO[C@@H](Cc1ccc(OC/C=C/C#Cc2cccc(C#C/C=C/COc3ccc(C[C@H](OCC)C(=O)O)cc3)c2)cc1)C(=O)O ... 109
CCO[C@@H](Cc1ccc(OC/C=C(\C)c2ccc(-c3ccc(/C(C)=C/COc4ccc(C[C@H](OCC)C(=O)O)cc4)cc3)cc2)cc1)C(=O)O ... 203

[a] CCO[C@@H](Cc1ccc(OC/C=C/C#Cc2ccccc2)cc1)C(=O)O
[b] CCO[C@@H](Cc1ccc(OC/C=C(\C)c2ccc(-c3ccccc3)cc2)cc1)C(=O)O
[c] CC(C)(Oc1ccc(C(=O)c2ccc(Cl)cc2)cc1)C(=O)O
[d] CCCCC[C@H](O)/C=C/[C@@H]1[C@H]2C/C(=C\CCCC(=O)O)C[C@H]2C[C@H]1O
Exam item: Ranking field: Fold activation; order: falling. Write the labels out in the order the request specifies.
Marked response: c, b, a, d
(c: 331%, b: 166%, a: 112%, d: 15%)

###

- Assay System: Peroxisome proliferator-activated receptor alpha (Homo sapiens)
- Sequence (Q07869 whole entry): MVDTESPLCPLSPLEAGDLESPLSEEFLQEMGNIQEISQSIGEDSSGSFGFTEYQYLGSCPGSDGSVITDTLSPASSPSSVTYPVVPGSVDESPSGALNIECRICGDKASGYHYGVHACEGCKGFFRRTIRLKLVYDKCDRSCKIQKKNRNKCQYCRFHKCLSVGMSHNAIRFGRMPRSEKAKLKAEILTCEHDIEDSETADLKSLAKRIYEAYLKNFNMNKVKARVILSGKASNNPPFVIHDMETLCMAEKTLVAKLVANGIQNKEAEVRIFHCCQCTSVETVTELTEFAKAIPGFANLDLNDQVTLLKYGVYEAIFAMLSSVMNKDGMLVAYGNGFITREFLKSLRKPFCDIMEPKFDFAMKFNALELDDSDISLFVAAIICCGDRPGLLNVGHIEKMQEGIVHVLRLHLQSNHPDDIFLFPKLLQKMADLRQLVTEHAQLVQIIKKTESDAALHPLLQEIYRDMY
- Experiment Summary: In vitro transactivation of human Peroxisome proliferator activated receptor alpha (hPPARalpha)
Measured Attribute: EC50 (nM)

Reference set (5 entries):
CCO[C@@H](Cc1ccc(OC/C=C(\C)c2ccc(-c3ccc(/C(C)=C/COc4ccc(C[C@H](OCC)C(=O)O)cc4)cc3)cc2)cc1)C(=O)O ... 6690
CCO[C@@H](Cc1ccc(OC/C=C/C#Cc2ccc(C#C/C=C/COc3ccc(C[C@H](OCC)C(=O)O)cc3)cc2)cc1)C(=O)O ... 710
CCCCC[C@H](O)/C=C/[C@@H]1[C@H]2C/C(=C\CCCC(=O)O)C[C@H]2C[C@H]1O ... 960
CCO[C@@H](Cc1ccc(OC/C=C(\C)c2ccc(-c3ccccc3)cc2)cc1)C(=O)O ... 490
CCO[C@@H](Cc1ccc(OC/C=C/C#Cc2cccc(C#C/C=C/COc3ccc(C[C@H](OCC)C(=O)O)cc3)c2)cc1)C(=O)O ... 300

[P] CC(C)(Oc1ccc(C(=O)c2ccc(Cl)cc2)cc1)C(=O)O
[Q] CCO[C@@H](Cc1ccc(OC/C=C/C#Cc2ccccc2)cc1)C(=O)O
Exam item: # returns the entry with the larger EC50; inputs P and Q In your reply, give the label of the chosen option.
Marked response: P
(P: 32100 nM, Q: 67 nM)
